experiment: Vasorelaxant activity against U46619-induced contraction in bovine coronary artery ring treated after U46619 challenge; format: functional, tissue-based; conditions: Bos taurus, read-out: EC50
Reported EC50 values for the following compounds.

Check out these entries, answers already filled in.
CCCCCNC(=O)NCCCCC#CCCC(=O)O    > 10 µM
CCCCCCN(C)C(=O)CCCC/C=C\CCCCCCC(=O)O    > 10 µM

Find the recorded EC50 belonging to `CCNC(=O)NCCCC/C=C\CCCCCCCCCC(=O)O` and report it. > 10 µM

====

test: Vasorelaxant activity against U46619-induced contraction in bovine coronary artery ring treated after U46619 challenge; type: functional, tissue-based; conditions: Bos taurus, read-out: EC50
Readout: EC50 (µM)

Check out these entries, answers already filled in.
CCCCCNC(=S)NCCCC/C=C\CCCCCCC(=O)O    1.5
CCCCCOC(=O)NCCCC/C=C\CCCCCCC(=O)O    8.3
CCCCCN(C)C(=O)N(C)CCCC/C=C\CCCCCCC(=O)O    3.2
CCCCCCNC(=O)NCCC/C=C\CCCCCCC(=O)O    3.5
CCCCN(C)C(=O)C(=O)N(C)CCCC/C=C\CCCCCCC(=O)O    4.4

A = CCCCCCC(=O)NCCCCCCCC#CCCCC(=O)O
B = CCCCCCC(=O)N(CCCC/C=C\CCCCCCC(=O)O)C(C)C
Quick check, higher EC50 between A and B ? Refer to your chosen entry by its label in the reply. A
(A: 5.7 µM, B: 1.7 µM)
